Source listed as the Human Domainome abundance scans (Beltran et al. 2025).

abundance fitness values by entry
B1: Advillin, residues 785 to 819; numbered along this chain, O75366 (parent)
chain: LSEQDFVSVFGITRGQFAALPGWKQLQMKKEKGLF

- Variants of: B1
- assayText: abundance fitness (aPCA) (normalised: wild type 0, dead -1); higher = more abundant; growth selection in yeast, the domain comes from the species named
- protocolConditions: Homo sapiens
Lab note: record the figure alone, no unit after it.

get_value(item= L34E , readout=abundance fitness) returns 0.266

Record L26A , field abundance fitness: 0.034

Data point: K24Y ; abundance fitness = -0.805

Others:
Lab note: measured abundance fitness of V7F was -0.038

Documented abundance fitness of Q16G : -0.378

Lookup result for Q4T ; measured abundance fitness: -0.202
